- experiment description: in vitro
- conditions used: blood
Rule: fraction unbound below 0.1 gives 1 (yes), anything at or above gives 0 (no).

A selection of reference data follows.
| compound | cat |
| --- | --- |
| CC(C)NC[C@H](O)COc1cccc2ccccc12 | 0 (no) |
| CC(C)NCC(O)COc1cccc2ccccc12 (stereo unspecified) | 0 (no) |
| Cc1cc(=O)n(-c2ccccc2)n1C [ANTIPYRINE] | 0 (no) |
| CCC1=C(C)CN(C(=O)NCCc2ccc(S(=O)(=O)NC(=O)N[C@H]3CC[C@H](C)CC3)cc2)C1=O [GLIMEPIRIDE] | 0 (no) |
| O=c1[nH]c2ccccc2n1CCCN1CCC(n2c(=O)[nH]c3cc(Cl)ccc32)CC1 | 1 (yes) |

Would you kindly look at the next entry?
Inquiry: Find out if reported fraction unbound for "CN(C)CCCN1c2ccccc2CCc2ccc(Cl)cc21" is less than 0.1
Reply text: 1 (yes)
